Data origin: ChEMBL document CHEMBL5512667

# assay summary: Half-life in CD-1 mouse at 10 mg/kg, po or 1 mg/kg, iv measured upto 24 hrs by LC-MS/MS analysis
# Assay type: ADME, organism-based
# condition: in vivo
# maps each entry to its half-life
Give just the number in min; leave the unit off.

In: Find the measured half-life of C[C@@]1(F)CNC[C@@H](Nc2nccc(-c3cccnc3Oc3cc(F)c(NS(=O)(=O)Cc4ccccc4)c(F)c3F)n2)C1 and report it.
Out: 93.6

In: Supply half-life value. Item: O=S(=O)(Cc1ccccc1)Nc1c(F)cc(Oc2ncccc2-c2ccnc(N[C@@H]3CNC[C@H](CF)C3)n2)c(F)c1F
Out: 45

API: the following record is the query input.
In: Give the reported half-life for this compound. O=S(=O)(Cc1ccccc1)Nc1c(F)cc(Oc2ncccc2-c2ccnc(N[C@@H]3CNC[C@@H](F)C3)n2)c(F)c1F
Out: 33
